Form field: GI50 (one value per entry).
test system: MDA-MB-435; test: NCI tumour cell line growth inhibition, 48 h
Activity calls are given as the source filed them. Rule as the data show it: active = GI50 up to about 1.1 µM and inactive = higher.

Completed entries (count: 3):
{"MOLECULE": "N#CC(NNC(=O)c1c(Cl)c(Cl)c(Cl)c(Cl)c1-c1nc2cc(C(=O)c3ccccc3)ccc2[nH]1)c1ccccc1 (stereo not given)", "RESULT": "2.82 µM (inactive)"}
{"MOLECULE": "CC1Cc2c(Br)nc(N)nc2NC1=O (stereo not given)", "RESULT": "> 100 µM (inactive)"}
{"MOLECULE": "[N-]=[N+]=NI1OC(=O)c2ccccc21", "RESULT": "67.3 µM (inactive)"}

Give reported GI50 value for Cc1c(OCc2cccc3ccccc23)ccc2c(O)cc(=S)oc12
30.1 µM (inactive)

Please list GI50 recorded for the molecule CC[C@@]1(CCC(=O)NCCc2c[nH]c3ccccc23)CCC(=O)N2CCc3c([nH]c4ccccc34)[C@H]21
7.36 µM (inactive)

###

tested on: NCI-H460; assay: NCI tumour cell line growth inhibition, 48 h
Activity calls are given as the source filed them. No stated cut-off is given here; in the data, active = GI50 up to about 1.1 µM and inactive = higher.
Hi! Could you answer with just one of these? 1 = active, 0 = inactive

Worked examples, 4 compounds total:
{"COMPOUND": "CC1(C)CC(=O)C(C(c2cccc(O)c2O)C2C(=O)CC(C)(C)CC2=O)C(=O)C1", "LABEL VALUE": 0}
{"COMPOUND": "COc1ccc(NC(/C(C(=O)c2ccccc2)=C(\\O)C(=O)/C=C(\\O)c2ccccc2)c2ccc(OC)cc2)cc1 (configuration not stated)", "LABEL VALUE": 0}
{"COMPOUND": "Nc1ncnc2c1ncn2CCCCC(=O)O", "LABEL VALUE": 0}
{"COMPOUND": "Cc1nc(N)nc(N)c1-c1ccc(Cl)c(Cl)c1", "LABEL VALUE": 1}

Entry CCc1cccc(C)c1NC(=O)C1=C(C)NC(C)=C(C(=O)Nc2c(C)cccc2CC)C1c1ccc2c(c1)OCO2 : call = ?
0

Tell me the recorded outcome of this test for OCC#CCNCl .
0

Assay outcome for Cc1c(C)c2c(c(N)c1C#N)C(=O)N(CCc1ccccc1)C2=O : what was it?
0

###

test system: DMS-273; assay: NCI tumour cell line growth inhibition, 48 h
Active and inactive are the calls of the source. Rule as the data show it: active = GI50 up to about 1.1 µM and inactive = higher.
REPORTED METRIC: GI50

Reference set (6 entries):
{"MOLECULE": "CCOC(=O)c1nn2c(nc1=O)sc1ccc3ccccc3c12", "GI50": "> 100 µM (inactive)"}
{"MOLECULE": "C[C@]12CCc3nonc3C1CC[C@@H]1C2CC[C@]2(C)NC(=O)CCC12 (stereo not given in full)", "GI50": "> 100 µM (inactive)"}
{"MOLECULE": "Nc1nc2c(ncn2CCOC(c2ccccc2)P(=O)(O)O)c(=O)[nH]1 (stereo not given)", "GI50": "> 100 µM (inactive)"}
{"MOLECULE": "Cc1c2c(cc3c1C(=O)C(=O)C1=C3OC[C@@H]1C)C(C)(C)CCC2", "GI50": "14.4 µM (inactive)"}
{"MOLECULE": "COc1cc(C2c3cc4c(cc3[C@H](NC(=O)c3cccs3)C3COC(=O)[C@H]23)OCO4)cc(OC)c1OC (stereo not given in full)", "GI50": "0.0188 µM (active)"}
{"MOLECULE": "ClCCNCCNCCCl.ClCCNCCNCCCl.[O-][Cl+3]([O-])([O-])O", "GI50": "27.5 µM (inactive)"}

Assign GI50 to the following record: CN1C(=O)C2C(C1=O)C1(O)c3ccccc3C2(N)c2ccccc21 (stereo not given)
> 100 µM (inactive)

Given the molecule CC(/C=C/C(=O)c1sc(-n2nc(-c3ccccc3)cc2-c2ccccc2)nc1C)=C\c1ccccc1 , write its reported GI50.
> 10 µM (inactive)

Give the measured GI50 for CCN(CC)c1ccc2c(c1)Nc1cc(=C(C#N)C#N)c3ccccc3c1=N2
> 100 µM (inactive)

Supply measured GI50 of CN(C)C(=S)/N=c1\sn(C)/c(=N\C(=S)N(C)C)n1C in your reply.
36.7 µM (inactive)
